Where do these numbers come from? They come from PubChem BioAssay (EPA / NIEHS).

Biological target: Retinoic acid receptor alpha (Homo sapiens)
Assay: ATG_DR5_RAR_CIS: Attagene CIS-FACTORIAL HepG2 Assay for human Retinoic Acid Receptor Alpha (RARE), DR5 submotif (AID 2282934);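 also: reporter responds to endogenous RAR alpha beta and gamma in HepG2 not RARA alone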
Details: HepG2 Attagene cis-factorial RARE DR5 reporter, mRNA; actives raise or lower the signal
Active and inactive are the calls of the source. The calls were made as follows: active = hit-call score of the fitted dose curve at least 0.9, where 1 is the maximum; inactive = score below 0.9.
Write down one outcome, taken from True (active), False (inactive)

Exam item: Outcome? "CCCCCCC(=O)c1ccccc1"
Marked response: True

###

Target: human Beta-secretase (BACE), BACE1 (gene 23621) (UniProt P56817)
Sequence (P56817 whole entry, looked up): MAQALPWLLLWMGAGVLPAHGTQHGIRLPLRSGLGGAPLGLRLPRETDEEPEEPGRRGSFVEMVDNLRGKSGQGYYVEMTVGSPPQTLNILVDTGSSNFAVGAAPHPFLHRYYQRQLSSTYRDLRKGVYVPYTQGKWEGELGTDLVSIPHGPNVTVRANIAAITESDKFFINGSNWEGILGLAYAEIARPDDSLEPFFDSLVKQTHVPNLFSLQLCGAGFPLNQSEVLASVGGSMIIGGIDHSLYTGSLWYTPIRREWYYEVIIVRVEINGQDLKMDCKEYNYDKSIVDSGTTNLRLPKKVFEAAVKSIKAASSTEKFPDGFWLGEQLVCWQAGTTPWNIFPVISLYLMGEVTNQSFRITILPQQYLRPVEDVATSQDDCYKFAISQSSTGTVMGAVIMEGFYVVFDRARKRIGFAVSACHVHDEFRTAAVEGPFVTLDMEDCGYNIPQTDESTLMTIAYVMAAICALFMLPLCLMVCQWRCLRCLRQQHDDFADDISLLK
Assay: NVS_ENZ_hBACE: NovaScreen (NVS) Enzymatic Assay for human Beta-secretase (BACE) (AID 2283140);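 also: hits are inhibitors that reduce fluorescent substrate signal versus DMSO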
Records with an inconclusive call do not appear. The source made the active and inactive calls. Rule for the calls: active = hit-call score of the fitted dose curve at least 0.9, where 1 is the maximum; inconclusive = response in the unintended direction; inactive = score below 0.9.
Write down one outcome, taken from active, inactive

- smiles.data: "CCCCCC(C)=O"
  target: "human Beta-secretase (BACE), BACE1 (gene 23621) (UniProt P56817)"
  discrete.label: "inactive"

Exam item: Outcome? "O=C1c2ccccc2C(=O)c2c(O)ccc(O)c21"
Marked response: active

Exam item: Outcome? "Oc1c(Cl)cc(Cl)c(Cl)c1Cc1c(O)c(Cl)cc(Cl)c1Cl"
Marked response: active

Exam item: Outcome? "COC(C)(C)CCO"
Marked response: inactive
